Molecular target: T1, GIP Receptor (Homo sapiens, UniProt P48546)
T1 construct: host or cells: HEK293T
T1 sequence (P48546 22-466): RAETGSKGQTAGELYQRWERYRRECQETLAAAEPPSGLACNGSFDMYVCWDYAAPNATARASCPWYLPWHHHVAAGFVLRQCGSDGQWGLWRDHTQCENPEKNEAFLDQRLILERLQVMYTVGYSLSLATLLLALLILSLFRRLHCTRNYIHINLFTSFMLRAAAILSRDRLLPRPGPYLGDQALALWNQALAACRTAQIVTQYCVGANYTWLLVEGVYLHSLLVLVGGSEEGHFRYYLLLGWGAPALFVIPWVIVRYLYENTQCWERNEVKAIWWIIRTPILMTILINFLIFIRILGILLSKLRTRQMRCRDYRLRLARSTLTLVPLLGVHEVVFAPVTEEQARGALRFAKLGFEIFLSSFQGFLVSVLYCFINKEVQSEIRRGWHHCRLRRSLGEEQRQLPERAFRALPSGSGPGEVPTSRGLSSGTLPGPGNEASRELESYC
Experiment: GIP receptor-mediated bioluminescence in HEK293T cells with chimeric promiscuous G protein (FIG. 5, Table II)
Format: cell-based
Conditions: signal induced by maximal GIP (1 μM) divided by signal induced by buffer alone
measured.quantity: Signal: background with GIP

{"columns": ["molecule", "measured.quantity", "result"],
 "data": [
  ["Mt-clytin K168T: Mitochondrial K168T modified Clytin, SEQ ID NO:24 (protein) MSVLTPLLLRGLTGSARRLPVPRAKIHSLPPEGKLRPNFDNPKWVNRHKFMFNFLDINGDGKITLDEIVSKASDDICAKLGATPEQTKRHQDAVEAFFKKIGMDYGKEVEFPAFVDGWKELANYDLKLWSQNKKSLIRDWGEAVFDIFDKDGSGSISLDEWKAYGRISGICSSDEDAEKTFKHCDLDNSGTLDVDEMTRQHLGFWYTLDPNADGLYGNFVP", "Signal: background with GIP", 113.4]
]}
